All figures here come from paper PMC10786891.

Molecular target: T1, EsCas13d, nuclease-dead (Eubacterium siraeum, UniProt B0MS50, R295A;H300A;R849A;H854A)
T1 sequence: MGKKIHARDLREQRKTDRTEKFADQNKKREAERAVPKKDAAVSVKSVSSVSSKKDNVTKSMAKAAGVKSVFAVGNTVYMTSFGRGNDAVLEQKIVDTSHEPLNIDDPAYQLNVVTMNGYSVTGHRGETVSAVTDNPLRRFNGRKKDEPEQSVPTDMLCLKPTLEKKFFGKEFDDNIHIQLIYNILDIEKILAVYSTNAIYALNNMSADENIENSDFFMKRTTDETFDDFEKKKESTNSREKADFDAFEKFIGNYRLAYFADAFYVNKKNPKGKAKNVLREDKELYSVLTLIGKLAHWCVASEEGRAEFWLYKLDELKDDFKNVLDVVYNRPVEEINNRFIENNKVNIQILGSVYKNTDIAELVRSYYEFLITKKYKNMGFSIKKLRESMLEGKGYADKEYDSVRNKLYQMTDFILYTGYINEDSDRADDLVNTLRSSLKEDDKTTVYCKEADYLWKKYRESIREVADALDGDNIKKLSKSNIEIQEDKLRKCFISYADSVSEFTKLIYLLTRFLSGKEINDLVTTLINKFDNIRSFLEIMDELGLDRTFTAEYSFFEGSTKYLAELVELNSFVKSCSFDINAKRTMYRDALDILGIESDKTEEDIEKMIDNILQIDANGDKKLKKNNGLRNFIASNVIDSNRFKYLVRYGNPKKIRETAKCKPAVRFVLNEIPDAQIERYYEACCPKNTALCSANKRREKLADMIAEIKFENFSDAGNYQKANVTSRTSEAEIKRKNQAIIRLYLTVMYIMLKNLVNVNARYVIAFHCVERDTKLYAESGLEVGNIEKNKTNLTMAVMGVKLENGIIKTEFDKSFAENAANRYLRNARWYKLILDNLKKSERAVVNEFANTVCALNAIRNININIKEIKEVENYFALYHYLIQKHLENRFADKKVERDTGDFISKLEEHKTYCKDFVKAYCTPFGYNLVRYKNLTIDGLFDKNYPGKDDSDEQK
Test: crRNA (strand 1, pre-loaded); Mg2+; 40 mM Tris-HCl pH 7.5, 150 mM NaCl, 6 mM MgCl2, 1 mM DTT, 0.1% Tween-20, 0.2 mg/ml BSA; 25 C; 10 min per concentration, then washed
Details: tags: His6-TwinStrep-SUMO cleaved; N-terminal SNAP kept (SNAP-Surface 488); label: 3' end held by stalled T7 RNA polymerase
Measure name: pKd
Interpret pKd as the negative base-10 log of the concentration measured in mol/L.

stdin: Entry target 1 C7G,G17A (mixed) RNA 1: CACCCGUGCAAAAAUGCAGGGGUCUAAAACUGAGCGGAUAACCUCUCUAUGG RNA 2: GGGAAUGGAUCCACAUCUACGAAUUCGUACCAUAAAGAGGUUAUGCGCUCACCGAGAUCGGAAGAGCACACGU : reported pKd = ?
stdout: 7.31
